Tested on: Escherichia coli
experimentalDetails: Antibacterial activity against Escherichia coli C7 after 18 hrs by broth microdilution method
Type: functional
assaySetup: C7, 18 h
propertyMeasured: MIC (µg/mL)
Please state the figure in µg/mL; there is no need to write the unit.

Query: For the compound shown here, Oc1cc(Cl)ccc1Oc1ccc(Cl)cc1Cl , give the reported MIC.
Result: 0.125

Query: For the compound shown here, Cc1ccc(-c2ccc(Oc3cccc(F)n3)c(O)c2)cc1 , give the reported MIC.
Result: 8

Query: For the compound shown here, CCc1ccc(Oc2ccc(S(C)(=O)=O)cc2F)c(O)c1 , give the reported MIC.
Result: 1

Query: For the compound shown here, CCc1ccc(Oc2cc(C)ccc2N)c(O)c1 , give the reported MIC.
Result: 16

Query: For the compound shown here, Oc1cc(C(O)C(F)(F)F)ccc1Oc1cccc(F)n1 (stereo not drawn) , give the reported MIC.
Result: 16

Query: For the compound shown here, CCc1ccc(Oc2ccc(NCCCO)cc2F)c(O)c1 , give the reported MIC.
Result: 16

Query: For the compound shown here, Cc1ccc(Oc2cccc(F)n2)c(O)c1 , give the reported MIC.
Result: 16

Query: For the compound shown here, CCCNS(=O)(=O)c1ccc(Oc2ccc(CC)cc2O)c(F)c1 , give the reported MIC.
Result: 4

Query: For the compound shown here, Oc1cc(Cl)ccc1Oc1cccc(F)n1 , give the reported MIC.
Result: 0.25

Query: For the compound shown here, CCc1ccc(Oc2ccc(S(=O)(=O)CCC3OCCO3)cc2)c(O)c1 , give the reported MIC.
Result: 16

Query: For the compound shown here, CCc1cc(O)c(Oc2ccc(C(=O)N3CCNC(=O)C3)cc2F)cc1F , give the reported MIC.
Result: 4

Query: For the compound shown here, CCc1cc(O)c(Oc2ccccc2F)cc1F , give the reported MIC.
Result: 0.25

Query: For the compound shown here, CCc1ccc(Oc2ccc(C(=O)N3CCNC(=O)C3)cc2F)c(O)c1 , give the reported MIC.
Result: 8

Query: For the compound shown here, CCc1ccc(Oc2ccc(S(N)(=O)=O)cc2F)c(O)c1 , give the reported MIC.
Result: 1

Query: For the compound shown here, CCc1cc(O)c(Oc2ccc(C#N)cc2F)cc1F , give the reported MIC.
Result: 1

Query: For the compound shown here, Oc1cc(CC(F)(F)F)ccc1Oc1cccc(F)n1 , give the reported MIC.
Result: 4

Query: For the compound shown here, CCc1ccc(Oc2ccccc2N)c(O)c1 , give the reported MIC.
Result: 4

Query: For the compound shown here, Oc1cc(Cn2cncn2)ccc1Oc1cccc(F)n1 , give the reported MIC.
Result: 16

Query: For the compound shown here, CCc1cc(O)c(Oc2cccnc2F)cc1F , give the reported MIC.
Result: 0.25

Query: For the compound shown here, CCc1ccc(Oc2ccc(C(C)=O)cc2F)c(O)c1 , give the reported MIC.
Result: 1

Query: For the compound shown here, CCc1cc(O)c(Oc2ccc(C(=O)NC)cc2F)cc1F , give the reported MIC.
Result: 8

Query: For the compound shown here, COCc1ccc(Oc2cccc(F)n2)c(O)c1 , give the reported MIC.
Result: 16

Query: For the compound shown here, CCc1ccc(Oc2ccc(S(C)(=O)=O)cc2)c(O)c1 , give the reported MIC.
Result: 16

Query: For the compound shown here, CCCNc1ccc(Oc2ccc(CC)cc2O)c(F)c1 , give the reported MIC.
Result: 16

Query: For the compound shown here, CCCc1ccc(Oc2cccc(OC)c2)c(O)c1 , give the reported MIC.
Result: 16

Query: For the compound shown here, CC(C)Cc1ccc(Oc2cccc(F)n2)c(O)c1 , give the reported MIC.
Result: 4
